Cited source: patent US20200223906A1

molecular target: T1, RSV F subtype A, furin-cleaved ectodomain stabilized in the prefusion conformation (DS-Cav1) (Respiratory syncytial virus subtype A, UniProt P03420 26-524); assay: BLI, IgG on AHQ sensor, 100 nM antigen
T1 construct: extracellular domain; Trimeric soluble antigen; also called Prefusion subtype A
measurement_type: log10 Kd (log10 of the value in nM)

# binder, log10 Kd
rows = [
    ("ADI-18924 (antibody, V domains shown, full-length IgG from yeast) VH: QVQLVQSGAEVKKPGESLKISCQGSGYSFSSFWIVWVRQMPGKGLEWMGSIYPGDSDTRYTPSFQGQVTISADKSTSTAYLQWNSLKPSDTAMYYCARCSLSCDYYGVNLWGQGTTVTVSS VL: QSVVTQPPSVSGAPGQRVTISCSGSSSNIGARSDVHWYQQLPGKAPKLLIYGNTNRPLGVPDRFSGSTSGTSASLAISGLQAEDEGYYYCQSYDSSLSGFYVFGTGTKLTVL", 0.81),
    ("ADI-18968 (antibody, V domains shown, full-length IgG from yeast) VH: EVQLVESGPGLVKPSQTLSLTCTVSDVLISSGDYYWSWIRQSPGKGLEWLGYIYYTGKTKYNPSLESRITMSVDTSKNQFSLRLSSVTAADTAVYFCTRDLGYSTSSPSFYYGMDVWGQGTTVTVSS VL: EIVLTQSPATLSLSPGERATLSCRASQSVGTYLAWYQQKPGQAPRLLIYDASYRVTGIPARFSASGSATDFTLTISSLEPEDFAVYFCQQRTNWPITFGQGTRLEIK", 0.30),
    ("ADI-18966 (antibody, V domains shown, full-length IgG from yeast) VH: QVQLVQSGGGVVQPGRSLRLSCAASGFTFRNYGMHWVRQAPGKGLEWVAAASYDGSSKYFADAVKGRFSISRDNTKNTLSLQMTSLRAEDTAVYYCARDPGVGSYYNVVGMDVWGQGTTVTVSS VL: DIRLTQSPLSLPVTLGQPASISCRSSQSLVYSDGNTYLNWFQQRPGQSPRRLIYRVSHRDSGVPDRFSGSESGTDFTLKISRVEAEDVGVYYCMQGTHWPPTFGQGTKVEIK", -0.24),
    ("ADI-18930 (antibody, V domains shown, full-length IgG from yeast) VH: QVQLVQSGAEVKKPGSSVKVSCKASGGTFSGYHISWVRQAPGQGLEWMGGIIHLFGTVNYAPKFQGRVTITADASTGTAYMELNSLMSEDTAVYYCARDAYEVWTGSYLPPFDYWGQGTLVTVSS VL: EIVLTQSPGTLSLSPGERVTLSCRASQTVTSSYLAWYQQKPGQAPRLLIYGAFTRATDIPDRFSGSGSGTDFTLTISRLEPEDSAVYYCQQYGSSFLTFGGGTKVDIK", -0.41),
    ("ADI-18923 (antibody, V domains shown, full-length IgG from yeast) VH: EVQLLESGGGLVKPGGSLRLSCAASGFTFSSYSMNWVRQAPGKGLEWVSSISSSSSYIYYADSVKGRFTISRDNAKNSLYLQMNSLRAEDTAVYYCARDWPNSSSSPNWFDPWGQGTLVTVSS VL: QSVLTQPPSVSGAPGQRVTISCTGSSSNIGAGYDVHWYQQLPGTAPKLLIYGNSNRPSGVPDRFSGSKSGTSASLAITGLQAEDEADYYCQSYDSSLSGFYVFGTGTKLTVL", -0.29),
    ("ADI-18939 (antibody, V domains shown, full-length IgG from yeast; also called Antibody Number 292; Ab # 292) VH: QVQLQQWGAGLLKPSETLSLTCAVYGGSFSGYSWSWIRQSPGKGLEWIGEINHRGSTNYNPSLKSRVTISVDTSKNQFSLKLSSVTAADTAVYYCAGTNYGEVNTSNQYFFGMDVWGQGTTVTVSS VL: DIRLTQSPSSLSASVGDRVTITCRASQSITTYLNWYQQKPGKAPKLLIYAASNLESGVPSSFSGSGFGTDFTLTISSLQPDDFATYYCQQSYSAPLTFGGGTKVDIK", -0.24),
    ("ADI-18903 (antibody, V domains shown, full-length IgG from yeast) VH: EVQLVESGGEVKKPGASVKVSCRASGYTFRNYGLTWVRQAPGQGLEWMGWISAYNGNTNYAQKFQGRVTLTTDTSTSTAYMELRSLRSDDTAVYFCARDVPGHGAAFMDVWGTGTTVTVSS VL: ETTLTQSPLSLPVTLGQPASISCRSSQSLEASDTNIYLSWFQQRPGQSPRRLIYKISNRDSGVPDRFSGSGSGTHFTLRISRVEADDVAVYYCMQGTHWPPAFGQGTKLEIK", -0.49),
    ("ADI-18898 (antibody, V domains shown, full-length IgG from yeast) VH: QVQLVQSGTEVKKPGASVKVSCKAAGYTFSNYGVSWVRQAPGQGLEWMGWISAYNGNTKFAQKVQGRLTMTTDTSTSTAYMELRNLRSDDTAVYYCARESGATAAAMFDYWGQGTLVTVSS VL: EIVLTQSPLSLPVTLGQPASISCRSSQSLEYSDGNIYLSWFQQRPGQSPRRLIYKVSHRDSGVPDRFSGSGSGTDFTLKIARVEAEDVAVYYCMQAIHWPRTFGQGTKVEIK", -0.52),
    ("ADI-18896 (antibody, V domains shown, full-length IgG from yeast) VH: EVQLLESGGGVVQSGRSLRLSCAASGFTFSDNGMHWVRQAPGKGLEWVAGIFYDGSNKQYADSVKGRFTISRDNSKSTLYLQMNSLRAEDTAVYYCARAPYDIWSGYCLDYWGQGTLVTVSS VL: DIQMTQTPATLSMSPGERATLSCRASQSVNNNLAWYQQRPGQAPRLLIYGASTRATGIPARFSGSGSETEFTLTISSLQSEDFAVYHCQQYSIWPQTFGQGTKLEIK", 0.36),
    ("ADI-18919 (antibody, V domains shown, full-length IgG from yeast) VH: QVQLQESGPGLEKPSQTLSLTCTVSRGSIRIGGYFWSWIRQHPGKGLEWLGYISNDGATDYNPSLRSRLAISADTSKNQFSLTLRSVTAADTAIYYCARTSYAGRMLDRWGQGILVTVSS VL: DIRVTQSPVSLPVTPGEPASISCRSSQSLLHSNGNNYLDWYLQKPGQSPQLLIYMGSYRASGVPDRFSGSGSGTDFTLKISRVEAEDVGVYYCMQGLQIPWTFGQGTKLEIK", -0.69),
]
